Tested on: mitochondrial membrane potential
Format: cell-based, mouse
readout_type: ΔΨm

Read the entry COP(=S)(OC)Oc1ccc([N+](=O)[O-])cc1 [methyl parathione] and write its reported ΔΨm.
−0.353

Answer with reported ΔΨm of CC1(C)S[C@@H]2[C@H](NC(=O)Cc3ccccc3)C(=O)N2[C@H]1C(=O)O.CC1(C)S[C@@H]2[C@H](NC(=O)Cc3ccccc3)C(=O)N2[C@H]1C(=O)O.c1ccc(CNCCNCc2ccccc2)cc1 [benzathine benzylpenicillin]
0.729

Item CC[C@H](C=C[C@@H](C)[C@H]1CC[C@H]2[C@@H]3CCC4=CC(=O)CC[C@]4(C)[C@H]3CC[C@]12C)C(C)C [stigmasta-4,22-dien-3-one] : provide ΔΨm
−0.299

Please look at this compound and report its ΔΨm: CN1CCC[C@H]1c1cccnc1 [nicotine]
−0.423

* * *

Please provide measured cyt c for the entries that follow.
Test system: cytochrome c
Type: cell-based, mouse

Identify measured cyt c associated with CC(N/C(=N\C#N)Nc1ccncc1)C(C)(C)C (stereo not drawn) [pinacidil]
0.027

Supply recorded cyt c for CCCCNc1ccc(C(=O)OCCN(C)C)cc1 [tetracaine] here.
−0.536

For the molecule COc1cc(C2Oc3cc([C@H]4Oc5cc(O)cc(O)c5C(=O)[C@@H]4O)ccc3OC2CO)ccc1O (stereo partly drawn) [silybin] , report cyt c.
0.150

Give the value of cyt c reported for the following: CN(C)CCC=C1c2ccccc2COc2ccccc21 [doxepin]
1.151

Output measured cyt c for this item: CC1CCC(C(C)C)C(O)C1 (stereo not drawn) [menthol]
−0.074

Note down cyt c recorded for C#C[C@]1(O)CC[C@H]2[C@@H]3CCC4=CC(=O)CC[C@@H]4[C@H]3CC[C@@]21C [norethindrone]
0.903

Respond only with cyt c recorded for C[C@@H](O)[C@H]1C(=O)N2C(C(=O)O)=C(SCCN=CN)C[C@H]12 [imipenem]
−0.330

Answer with reported cyt c of NCCc1ccc(O)c(O)c1 [dopamine]
0.007

Give recorded cyt c. CC(N)C(O)c1ccccc1 (stereo not drawn) [phenylpropanolamine]
0.947

Quickly give me recorded cyt c for OC(c1cc(C(F)(F)F)nc2c(C(F)(F)F)cccc12)C1CCCCN1 (stereo not drawn) [mefloquine]
0.498

Give cyt c for the following molecule: COc1cccc2c1C(=O)c1c(O)c3c(c(O)c1C2=O)C[C@@](O)(C(C)=O)C[C@@H]3O[C@H]1C[C@H](N)[C@H](O)[C@H](C)O1 [Daunorubicin, reference compound]
−3.722

Name the recorded cyt c of the item Cc1cc(NC(=O)C2=C(O)c3ccccc3S(=O)(=O)N2C)no1 [isoxicam] in your answer.
0.177

Identify measured cyt c associated with CN(C(=O)CN(CCO)CC(=O)N(C)C(C)(C)Cc1ccccc1)C(C)(C)Cc1ccccc1 [oxethazaine]
−0.550

Given the molecule CCCCC(CC)CNC(=N)NC(=N)NCCCCCCNC(=N)NC(=N)NCC(CC)CCCC (stereo not drawn) [alexidine] , write its reported cyt c.
−3.201

Provide one value: measured cyt c of CCC(=O)c1ccc2c(c1)N(CC(C)N(C)C)c1ccccc1S2 (stereo not drawn) [propiomazine]
−0.368

Return value of cyt c for input NCCS [mercaptamine] , no commentary.
0.320

Give a short answer stating reported cyt c for CCOc1ccc(NC(C)=O)cc1 [phenacetin] .
−0.611

Give cyt c for CN1CCC[C@H]1c1cccnc1 [nicotine]
0.348

Let me know recorded cyt c for N[C@@H](C(=O)N[C@@H]1C(=O)N2C(C(=O)O)=C(Cl)CC[C@H]12)c1ccccc1 [loracarbef] , thanks.
0.622

Assign cyt c to the following record: CN(C)c1nc(N(C)C)nc(N(C)C)n1 [altretamine]
0.040

Give cyt c for Nc1cc(C(Cl)=C(Cl)Cl)c(S(N)(=O)=O)cc1S(N)(=O)=O [clorsulon]
−0.186

Please report the measured cyt c for CCCCOc1ccc(C(=O)CCN2CCCCC2)cc1 [dyclonine]
0.597

Return the recorded cyt c value; entry: C[C@]12C=CC(=O)C=C1CC[C@H]1[C@@H]3C[C@@H](O)[C@](O)(C(=O)CO)[C@@]3(C)C[C@H](O)[C@@]12F [triamcinolone]
−1.483

Input CCn1cc(C(=O)O)c(=O)c2cc3c(cc21)OCO3 [oxolinic acid] , output reported cyt c.
0.227

* * *

System: reactive oxygen species
Type: cell-based, mouse
Settings: 20 μM; composite Z-score vs DMSO
Give true when the value for ROS is at least 0.7. Give false when it is less.

Reported ROS at or above 0.7? CC[C@@H](C(=O)[C@@H](C)[C@@H](O)[C@H](C)[C@@H]1O[C@@H]([C@@H](CC)C(=O)O)CC[C@@H]1C)[C@H]1O[C@]2(C=C[C@@H](O)[C@]3(CC[C@@](C)([C@H]4CC[C@](O)(CC)[C@H](C)O4)O3)O2)[C@H](C)C[C@@H]1C [salinomycin, reference compound]
false

Hi team, for CC1(C)S[C@@H]2[C@H](NC(=O)COc3ccccc3)C(=O)N2[C@H]1C(=O)O , is the recorded ROS at or above 0.7?
true

Is ROS for N#CC(=Cc1cccc(O)c1)C(=O)O [alpha-cyano-3-hydroxycinnamic acid] at or above 0.7?
false

Textbook exercise: given the entry CC(=O)Oc1c(C)c(C)c2c(c1C)CCC(C)(CCCC(C)CCCC(C)CCCC(C)C)O2 (stereo not drawn) [alpha-tochopheryl acetate] , state whether its ROS is greater than or equal to 0.7.
false

Item CC1(C)[C@H]2CC[C@@]1(C)C(=O)C2 with ROS of 0.7 or above?
false

Please tell me: is the molecule Nc1ccc(C(=O)[O-])cc1.[K+] [potassium p-aminobenzoate] at or over 0.7 in terms of ROS?
true

Please check the record CCN(CC)Cc1cc(Nc2ccnc3cc(Cl)ccc23)ccc1O and state if its ROS is at or above 0.7.
true

Could you tell me if the measured ROS of Fc1ccc(C(c2ccccc2)(c2ccccc2F)n2ccnc2)cc1 (centres unmarked) reaches 0.7 or more?
true

* * *

Assignment: determine reported ROS for the given compounds.
System: reactive oxygen species
Assay type: cell-based, mouse
API note: the answer field is a bare number with no unit suffix.

Given C[C@@H]1CC[C@@]23CCC4(C)[C@@](C=CC5[C@@]6(C)CC[C@H](O)C(C)(C)C6CC[C@]54C)(OC2=O)C3[C@H]1C (stereo partly shown) [dehydro (11,12)ursolic acid lactone] , respond with its ROS.
0.385

Fill in reported ROS for this entry: COC(=O)[C@H](c1ccccc1Cl)N1CCc2sccc2C1
−0.196

Tell me measured ROS for CCCC(C(=O)OCCN(CC)CC)(c1ccccc1)c1ccccc1 please.
0.616

// Input: Clc1ccccc1C(c1ccccc1)(c1ccccc1)n1ccnc1 . Output its ROS only.
2.521

Give the value of ROS reported for the following: C[C@H]1C[C@@H]2[C@H]([C@@H](O)C[C@@]3(C)[C@H]2CC[C@]3(O)C(=O)CO)[C@@]2(C)C=CC(=O)C=C12
0.133

Give me measured ROS, please, for this compound: C[N+](C)(C)CC(=O)O
−0.348

Input Cc1cc(C2CCCCC2)n(O)c(=O)c1.NCCO , output reported ROS.
−1.968

Indicate its recorded ROS; the compound in question is COc1cc(Cc2cnc(N)nc2N)cc(OC)c1OC
1.375

Answer with reported ROS of CC1(C)CC[C@]2(C(=O)O)CC[C@]3(C)C(=CC[C@@H]4[C@@]5(C)CC[C@H](O)[C@@](C)(CO)[C@@H]5CC[C@]43C)[C@@H]2C1
0.385

Tell me ROS reported for CN1CCCN=C1/C=C/c1cccs1 [pyrantel pamoate]
0.592

* * *

System: nuOXPHOS transcripts
Assay type: cell-based, mouse
Lab note: anything with nucOX below -0.5 is marked met; values at -0.5 or higher are marked not met.

Check if nucOX falls below -0.5 for C=C1C[C@]23C[C@@]1(O)CC[C@H]2[C@@]12C=C[C@H](O)[C@@](C)(C(=O)O1)[C@H]2[C@@H]3C(=O)O [gibberellic acid] .
not met

hey, is nucOX for CN1Cc2c(N)cccc2C(c2ccccc2)C1 (stereo not shown) [nomifensin] lower than -0.5 or not?
met

Does the reported nucOX of CNC[C@H](O)c1cccc(O)c1 [phenylephrine] stay below -0.5?
not met

Lab note: nucOX threshold -0.5. Does this molecule come in strictly under it? C[C@H]1C[C@@H]2[C@H]([C@@H](O)C[C@@]3(C)[C@H]2CC[C@]3(O)C(=O)CO)[C@@]2(C)C=CC(=O)C=C12 [methylprednisolone]
not met

Is the reported nucOX for COC(=O)[C@@H]1[C@H]2C[C@H]3c4[nH]c5ccccc5c4CCN3C[C@@H]2CC[C@@H]1O [yohimbine] strictly below -0.5?
not met

Is nucOX of COc1cccc2c1C(=O)c1c(O)c3c(c(O)c1C2=O)C[C@@](O)(C(C)=O)C[C@@H]3O[C@H]1C[C@H](N)[C@H](O)[C@H](C)O1 [Daunorubicin, reference compound] strictly below -0.5?
met
